target: MecA (Staphylococcus aureus, UniProt Q7DHH4); assay: Binding affinity against PBP2a receptor by competition analysis with [3H]benzylpenicillin using cell membrane fractions from the MRSA COL strain.
Sequence (Q7DHH4 whole entry): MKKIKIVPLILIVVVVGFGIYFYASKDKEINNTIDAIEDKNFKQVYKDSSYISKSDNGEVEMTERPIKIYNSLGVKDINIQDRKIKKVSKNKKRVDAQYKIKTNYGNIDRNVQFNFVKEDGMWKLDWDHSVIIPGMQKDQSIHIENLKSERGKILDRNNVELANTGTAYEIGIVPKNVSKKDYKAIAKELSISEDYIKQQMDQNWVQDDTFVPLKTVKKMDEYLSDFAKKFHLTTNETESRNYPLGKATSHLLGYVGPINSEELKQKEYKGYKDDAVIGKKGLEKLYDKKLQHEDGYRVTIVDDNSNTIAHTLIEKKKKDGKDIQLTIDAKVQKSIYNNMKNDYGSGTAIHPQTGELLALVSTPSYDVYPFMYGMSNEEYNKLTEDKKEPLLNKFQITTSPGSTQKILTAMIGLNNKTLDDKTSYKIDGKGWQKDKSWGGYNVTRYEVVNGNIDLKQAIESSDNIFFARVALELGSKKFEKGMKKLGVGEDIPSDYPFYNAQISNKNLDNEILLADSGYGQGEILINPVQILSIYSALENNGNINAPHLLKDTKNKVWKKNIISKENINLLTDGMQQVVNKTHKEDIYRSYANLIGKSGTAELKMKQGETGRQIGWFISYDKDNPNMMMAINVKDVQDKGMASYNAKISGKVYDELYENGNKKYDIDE
VALUE KIND: IC50 (µM)
The reply should be a number in µM, with the unit left off.

INSERT INTO results (molecule_smiles, study_target, readout_units, readout_value) VALUES
  ('C[C@@H](O)[C@H]1C(=O)N2C(C(=O)O)=C(c3ccc4c(c3)-c3ccc(C[N+]56CC[N+](CC(=O)Nc7cccc(C#N)c7)(CC5)CC6)cc3C4=O)[C@H](C)[C@H]12.[Cl-].[Cl-]', 'MecA (Staphylococcus aureus, UniProt Q7DHH4)', 'µM', 0.752),
  ('C[C@@H](O)[C@H]1C(=O)N2C(C(=O)O)=C(c3ccc4c(c3)-c3ccc(C[N+]56CC[N+](CC(=O)N(C)c7ccccc7)(CC5)CC6)cc3C4=O)[C@H](C)[C@H]12.[Cl-].[Cl-]', 'MecA (Staphylococcus aureus, UniProt Q7DHH4)', 'µM', 1.23);

Here's the next entry for you.
(Q) What IC50 value was documented for this molecule, C[C@@H](O)[C@H]1C(=O)N2C(C(=O)O)=C(c3ccc4c(c3)-c3ccc(C[N+]56CC[N+](CC(=O)Nc7nccs7)(CC5)CC6)cc3C4=O)[C@H](C)[C@H]12.[Cl-].[Cl-] ?
(A) 0.853

###

MIC90 values, listed per item
tested on: Staphylococcus sp.; experiment: Antibacterial activity against methicillin-resistant coagulase negative Staphylococci (MRCNS); assay type: functional
Give the figure together with its unit, number first.

For orientation, consider the following solved cases.
INSERT INTO assay_data (molecule_smiles, value_kind, readout_value) VALUES
  ('C[C@@H](O)[C@H]1C(=O)N2C(C(=O)O)=C(c3ccc4c(c3)-c3ccc(C[N+]56CC[N+](CC#N)(CC5)CC6)cc3C4=O)C[C@H]12.[Cl-].[Cl-]', 'MIC90', '4 µg/mL'),
  ('C[C@@H](O)[C@H]1C(=O)N2C(C(=O)O)=C(c3ccc4c(c3)-c3ccc(C[N+]56CC[N+](CC(=O)Nc7ccc(CO)cc7)(CC5)CC6)cc3C4=O)[C@H](C)[C@H]12.[Cl-].[Cl-]', 'MIC90', '4 µg/mL'),
  ('C[C@@H](O)[C@H]1C(=O)N2C(C(=O)O)=C(c3ccc4c(c3)-c3ccc(C[N+]56CC[N+](CCCO)(CC5)CC6)cc3C4=O)C[C@H]12.[Cl-].[Cl-]', 'MIC90', '4 µg/mL'),
  ('C[C@@H](O)[C@H]1C(=O)N2C(C(=O)O)=C(c3ccc4c(c3)-c3ccc(C[N+]56CC[N+](CCCC(N)=O)(CC5)CC6)cc3C4=O)[C@H](C)[C@H]12.[Cl-].[Cl-]', 'MIC90', '8 µg/mL');

Here's the next entry for you.
(Q) What MIC90 value was documented for this compound, C[C@@H](O)[C@H]1C(=O)N2C(C(=O)O)=C(c3ccc4c(c3)-c3ccc(C[N+]56CC[N+](CC(=O)Nc7cccc(C#N)c7)(CC5)CC6)cc3C4=O)[C@H](C)[C@H]12.[Cl-].[Cl-] ?
(A) 2 µg/mL

###

test system: Staphylococcus sp.; test: Antibacterial activity against methicillin-resistant coagulase negative Staphylococci (MRCNS); assay type: functional
MIC90 values, listed per item
The reply should be a number in µg/mL, with the unit left off.

For orientation, consider the following solved cases.
INSERT INTO assay_data (molecule_smiles, readout_value) VALUES
  ('CNC(=O)C[N+]12CC[N+](Cc3ccc4c(c3)C(=O)c3ccc(C5=C(C(=O)O)N6C(=O)[C@H]([C@@H](C)O)[C@H]6C5)cc3-4)(CC1)CC2.[Cl-].[Cl-]', 4),
  ('C[C@@H](O)[C@H]1C(=O)N2C(C(=O)O)=C(c3ccc4c(c3)-c3ccc(C[N+]56CC[N+](CC(=O)NC(C)(C)C)(CC5)CC6)cc3C4=O)[C@H](C)[C@H]12.[Cl-].[Cl-]', 8),
  ('C[C@@H](O)[C@H]1C(=O)N2C(C(=O)O)=C(c3ccc4c(c3)-c3ccc(C[N+]56CC[N+](C)(CC5)CC6)cc3C4=O)[C@H](C)[C@H]12.[Cl-].[Cl-]', 8),
  ('C[C@@H](O)[C@H]1C(=O)N2C(C(=O)O)=C(c3ccc4c(c3)-c3ccc(C[N+]56CC[N+](CC(=O)Nc7ccc(O)cc7)(CC5)CC6)cc3C4=O)[C@H](C)[C@H]12.[Cl-].[Cl-]', 4),
  ('C[C@@H](O)[C@H]1C(=O)N2C(C(=O)[O-])=C(c3ccc4c(c3)-c3ccc(C[n+]5ccn(C)c5)cc3C4=O)C[C@H]12', 4);

(Q) What MIC90 value was documented for this compound, C[C@@H](O)[C@H]1C(=O)N2C(C(=O)O)=C(c3ccc4c(c3)-c3ccc(C[N+]56CC[N+](CC(=O)N(C)c7ccccc7)(CC5)CC6)cc3C4=O)[C@H](C)[C@H]12.[Cl-].[Cl-] ?
(A) 16

(Q) Also C[C@@H](O)[C@H]1C(=O)N2C(C(=O)O)=C(c3ccc4c(c3)-c3ccc(C[N+]56CC[N+](CC(=O)Nc7ccccc7C#N)(CC5)CC6)cc3C4=O)[C@H](C)[C@H]12.[Cl-].[Cl-] , if possible.
(A) 4

(Q) Also C[C@@H](O)[C@H]1C(=O)N2C(C(=O)O)=C(c3ccc4c(c3)-c3ccc(C[N+]56CC[N+](CC#N)(CC5)CC6)cc3C4=O)[C@H](C)[C@H]12.[Cl-].[Cl-] , if possible.
(A) 8

(Q) Also CC(=O)c1cccc(NC(=O)C[N+]23CC[N+](Cc4ccc5c(c4)C(=O)c4ccc(C6=C(C(=O)O)N7C(=O)[C@H]([C@@H](C)O)[C@H]7[C@H]6C)cc4-5)(CC2)CC3)c1.[Cl-].[Cl-] , if possible.
(A) 4

(Q) Also C[C@@H](O)[C@H]1C(=O)N2C(C(=O)O)=C(c3ccc4c(c3)-c3ccc(C[N+]56CC[N+](CC(=O)Nc7cccnc7)(CC5)CC6)cc3C4=O)[C@H](C)[C@H]12.[Cl-].[Cl-] , if possible.
(A) 4

Origin of values: ChEMBL document CHEMBL1131884
